# protocol-notes: NCI Yeast Anticancer Drug Screen. Data for the sgs1 mgt1 strain (AID 161);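 further: 0% = growth of cultures given vehicle only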
# measurement-parameters: S. cerevisiae sgs1 mgt1 strain, at 50.0 µM, hits give high values
About 79,000 compounds went through this panel and 15% of them were active in at least one assay; those are over-represented in the sample as a whole. Active and inactive are the calls of the source. No stated cut-off is given here; in the data, active means growth inhibition above about 70%; inactive means the rest.
Measured growth inhibition accompanies every entry in the list below.

Solved cases below.
# compound, result
rows = [
    ("Nc1nc2c3nc(Nc4ccccc4)sc3nc(=O)n2c2sc(Nc3ccccc3)nc12", "2.75% (inactive)"),
    ("N#Cc1c(-c2cccn(-c3ccccc3)c2=O)cc(-c2ccccc2)[nH]c1=O", "-5.7% (inactive)"),
    ("Oc1c(O)c(O)c(O)c(O)c1O", "7.45% (inactive)"),
    ("O=C(COc1cc(Cl)c(Cl)cc1Cl)Nc1ccc(N=Nc2ccccc2)cc1", "-12.6% (inactive)"),
    ("COc1ccc(CC2CCCNC2C(=O)O)cc1 (configuration not stated)", "-3.55% (inactive)"),
    ("CN(C)CCNC(=O)CN", "4.1% (inactive)"),
    ("Cc1cccc(NC(=O)O/N=C(\\Cl)C(C)C)c1", "70% (inactive)"),
    ("Cc1c(CCCl)c(=O)n2c([nH]c3ccccc32)c1C#N", "18.6% (inactive)"),
]

Recall and state the measured growth inhibition for O=C(O)C1CCCCC1C(=O)O.[NH-]C1CCC1.[NH2-].[Pt+2] (configuration not stated) .
99.4% (active)

Recall and state the measured growth inhibition for COc1cc2c(cc1OC)C(C(c1ccccc1)c1ccccc1)N(C)CC2 (configuration not stated) .
-16.7% (inactive)

Recall and state the measured growth inhibition for CCc1cccc(C)c1NC(=O)C(=O)CC(=O)CS(=O)(=O)c1ccc(C)cc1 .
-6% (inactive)

Recall and state the measured growth inhibition for Nc1ccc(N=Nc2ccc(N)cc2)cc1 .
-13.7% (inactive)

Recall and state the measured growth inhibition for O=C(OCC(COC(=O)c1ccccc1)OC(=O)c1ccccc1)c1ccccc1 .
8.8% (inactive)

Recall and state the measured growth inhibition for CC(=O)COC(C)=O .
4.85% (inactive)

Recall and state the measured growth inhibition for CC(C)C(C(=O)O)C(=O)O .
4.75% (inactive)

Recall and state the measured growth inhibition for S=C1SCN(C2CCCCCCCCCCC2)CN1C1CCCCCCCCCCC1 .
-17.9% (inactive)

Recall and state the measured growth inhibition for CC(=O)OCCOCNC(=S)N/N=C/c1ccc([N+](=O)[O-])s1 .
23.9% (inactive)

====

# protocol-notes: NCI Yeast Anticancer Drug Screen. Data for the cln2 rad14 strain (AID 165);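 further: 0% = growth equal to vehicle treated cultures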
# measurement-parameters: S. cerevisiae cln2 rad14 strain, at 50.0 µM, hits give high values
This is part of a sample that, as a whole, favours compounds with a hit. Of some 79,000 tested, about 15% had one in any assay.
reported-metric: growth inhibition (%)
Numbers only here, please. The scale is %.

# compound, unit-string, measured-number
data = [
    ("OC1CCCSC1 (stereo not drawn)", "%", 4.75),
]

Recall and state the measured growth inhibition for O=c1c(F)cn2c(=O)n1CCCCCCCn1c(=O)c(F)cn(c1=O)CCCCCCC2 .
0.7

Recall and state the measured growth inhibition for CCCC(=O)C(C)C(=O)CC (stereo not drawn) .
4.3

Recall and state the measured growth inhibition for O=c1/c(=C2\Cc3cccc4cccc2c34)c2cccc3cccc1c32 .
-1.45

Recall and state the measured growth inhibition for CN(C)C(=S)/N=c1\ssc(=S)n1Cc1cccs1 .
6.75

Recall and state the measured growth inhibition for Cc1c[nH]c2nc(C)n(-c3ccccc3F)c(=N)c12 .
-8.7

Recall and state the measured growth inhibition for O=S(=O)(/C=C/c1ccc(F)cc1)Cc1ccccc1 .
12.9

Recall and state the measured growth inhibition for Cc1cc(=O)c2c(=O)n(-c3ccccc3)[nH]c2[nH]1 .
-27.2

Recall and state the measured growth inhibition for O=C(O)c1cc(C(=O)O)cc(N2C(=O)c3ccccc3C2=O)c1 .
39.3

Recall and state the measured growth inhibition for CCC1C(C#N)=C(O)NC(O)=C1C#N .
8.6

Recall and state the measured growth inhibition for Cc1c(C)c(CSC#N)c(C)c(C)c1CSC#N .
-1.9

Recall and state the measured growth inhibition for O=C1CSc2nc3c(Cl)cc(Cl)cc3c(=O)n21 .
8.2

Recall and state the measured growth inhibition for C[N+]1(C)CCCC1 .
7.6
